Target: T1, human AXL expressed on the cell surface of tumor cell lines (human, UniProt P30530 26-894)
T1 construct: whole, on cells; also called cell surface-expressed AXL; cell-based AXL
T1 sequence (looked up): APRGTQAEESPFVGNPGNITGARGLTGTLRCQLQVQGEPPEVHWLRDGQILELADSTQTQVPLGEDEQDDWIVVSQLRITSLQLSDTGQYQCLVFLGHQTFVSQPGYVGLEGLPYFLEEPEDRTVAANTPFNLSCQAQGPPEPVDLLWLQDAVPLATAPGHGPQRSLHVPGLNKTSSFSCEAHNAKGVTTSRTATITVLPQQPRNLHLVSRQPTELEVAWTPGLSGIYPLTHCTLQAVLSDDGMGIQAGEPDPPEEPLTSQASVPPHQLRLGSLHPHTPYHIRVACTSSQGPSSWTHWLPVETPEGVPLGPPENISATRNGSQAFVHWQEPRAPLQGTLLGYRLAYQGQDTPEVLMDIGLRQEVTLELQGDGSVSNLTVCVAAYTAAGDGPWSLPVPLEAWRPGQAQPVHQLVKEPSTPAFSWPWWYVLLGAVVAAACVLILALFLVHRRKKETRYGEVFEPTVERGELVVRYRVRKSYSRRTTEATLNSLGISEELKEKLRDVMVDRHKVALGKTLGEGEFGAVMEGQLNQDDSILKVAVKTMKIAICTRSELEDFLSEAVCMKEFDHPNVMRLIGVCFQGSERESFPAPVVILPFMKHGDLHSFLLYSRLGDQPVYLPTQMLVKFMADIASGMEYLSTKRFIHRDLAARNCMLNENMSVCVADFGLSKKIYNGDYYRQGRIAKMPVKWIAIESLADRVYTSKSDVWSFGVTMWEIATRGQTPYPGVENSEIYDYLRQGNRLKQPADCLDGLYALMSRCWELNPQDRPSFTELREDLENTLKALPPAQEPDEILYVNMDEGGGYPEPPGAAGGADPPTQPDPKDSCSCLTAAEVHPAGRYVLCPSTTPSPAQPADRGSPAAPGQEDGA
Assay: FACS on SKOV3 cells, apparent Kd, human Fc format
ASSAY METRIC: pKd
Answers are plain numbers, as −log10 of the molar value.

For orientation, consider the following solved cases.
BINDER: NRC-sdAb008-Fc (VHH-human IgG1 Fc fusion) (Fc fusion, VHH fused N-terminally to human IgG1 Fc; also called NRC-sdAb008-hIgG1; not shown: human IgG1 Fc) QVKLEESGGGLVQAGGSLRLSCAASGSSGMINTMGWYRQAPGKQRELVARRSTGGTTNYADSVKGRFTISRDDANNTVYLQMNSLKPEDTAVYYCAIIWRTSDLTGRFNTWGQGTQVTVSS
pKd: 10.26
--
BINDER: NRC-sdAb006-Fc (VHH-human IgG1 Fc fusion) (Fc fusion, VHH fused N-terminally to human IgG1 Fc; also called NRC-sdAb006-hIgG1; not shown: human IgG1 Fc) QVKLEESGGGLVQAGASLRLSCVASESIFGFNTMGWYRQAPGNERELVASISNSKRTMYADSVKGRFTISRDNAKNTVNLQMNNLKPEDTAVYYCRAWGIITSATVYWGQGTQVTVSS
pKd: 7.87
--
BINDER: NRC-sdAb005-Fc (VHH-human IgG1 Fc fusion) (Fc fusion, VHH fused N-terminally to human IgG1 Fc; also called NRC-sdAb005-hIgG1; not shown: human IgG1 Fc) QVKLEESGGGLAQAGGSLRLSCAASGSISSINTIGWFRQAPGKQRELVAASDSGANRNYADSVKGRFTISRDNAKNTVYLQMNNLKPEDTAIYYCRAWGTGTISTMYWGQGTQVTVSS
pKd: 8.69

As a next step, examine the binder that follows.
Ask | Output measured pKd for this item: NRC-sdAb001-Fc (VHH-human IgG1 Fc fusion) (Fc fusion, VHH fused N-terminally to human IgG1 Fc, made in HEK293 cells; also called NRC-sdAb0001-Fc; NRC-sdAb001-hIgG1; not shown: human IgG1 Fc) QVKLEESGGGLVQAGGSLRLSCTASASISSFDIMGWYRQAPGKQRELVAAITTLDIANYRDSVKGRFTISRDNAKNTVYLQMDSLKPEDTARYHCAAFQSDQNYWGQGTQVTVSS
Reply | 9.95
